EXPERIMENTAL TARGET: EPHB2 (UniProt P29323)
Sequence (P29323 whole entry, looked up): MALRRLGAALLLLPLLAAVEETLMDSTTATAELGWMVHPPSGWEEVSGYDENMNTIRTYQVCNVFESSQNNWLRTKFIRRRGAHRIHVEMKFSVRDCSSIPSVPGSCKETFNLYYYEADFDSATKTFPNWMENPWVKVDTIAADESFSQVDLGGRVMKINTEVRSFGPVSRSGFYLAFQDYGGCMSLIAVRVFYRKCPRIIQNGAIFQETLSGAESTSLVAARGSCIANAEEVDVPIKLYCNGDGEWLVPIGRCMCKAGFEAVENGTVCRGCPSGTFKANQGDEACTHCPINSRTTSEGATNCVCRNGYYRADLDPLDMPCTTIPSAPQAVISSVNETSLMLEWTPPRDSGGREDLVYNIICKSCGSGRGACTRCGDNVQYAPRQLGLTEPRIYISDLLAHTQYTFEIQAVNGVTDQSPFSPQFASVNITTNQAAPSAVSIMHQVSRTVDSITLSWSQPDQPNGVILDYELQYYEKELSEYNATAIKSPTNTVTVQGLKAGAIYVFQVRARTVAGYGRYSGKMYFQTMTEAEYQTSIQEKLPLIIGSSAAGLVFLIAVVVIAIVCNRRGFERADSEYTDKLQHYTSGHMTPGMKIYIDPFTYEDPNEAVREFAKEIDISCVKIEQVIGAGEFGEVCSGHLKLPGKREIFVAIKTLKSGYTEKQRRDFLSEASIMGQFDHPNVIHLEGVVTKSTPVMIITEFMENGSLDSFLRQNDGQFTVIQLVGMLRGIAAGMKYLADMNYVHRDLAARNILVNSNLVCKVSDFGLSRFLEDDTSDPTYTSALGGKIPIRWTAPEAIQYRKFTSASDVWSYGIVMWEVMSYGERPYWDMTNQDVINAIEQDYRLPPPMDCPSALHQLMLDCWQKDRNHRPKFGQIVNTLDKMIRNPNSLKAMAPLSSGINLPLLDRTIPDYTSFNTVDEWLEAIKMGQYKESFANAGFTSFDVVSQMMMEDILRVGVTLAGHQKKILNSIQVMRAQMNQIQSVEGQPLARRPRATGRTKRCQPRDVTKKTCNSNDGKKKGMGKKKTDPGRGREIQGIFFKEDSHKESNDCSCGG
TEST DESCRIPTION: phosphorylation enrichment, bacterial display (enrichment ratio); higher = better substrate or ligand; peptides without Tyr show the background;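 note: 11-residue human phosphosite peptides and single-mutation variants displayed on the E. coli surface, counted by deep sequencing, each peptide's frequency after selection divided by its frequency in the unselected input library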;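 note: frequency after pTyr selection over input frequency; kinase dosed for 20-30% of maximal phosphorylation in three min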
ASSAY ENDPOINT: phosphorylation enrichment

Example cases with answers are listed next.
[[record]]
sequence_data = "DMDATYRPMYS [JUP_Y701]"
experimental_target = "EPHB2 (UniProt P29323)"
assay_endpoint = "phosphorylation enrichment"
reported_value = 0.525

[[record]]
sequence_data = "VLNKGYRMVVN [HINT1_Y94_G89V]"
experimental_target = "EPHB2 (UniProt P29323)"
assay_endpoint = "phosphorylation enrichment"
reported_value = 0.343

[[record]]
sequence_data = "ADCRFYTFPQM [GAMT_Y223_A224T_YF]"
experimental_target = "EPHB2 (UniProt P29323)"
assay_endpoint = "phosphorylation enrichment"
reported_value = 0.813

[[record]]
sequence_data = "CTTIHYHFMCN [TP53_Y234_N235H_YF]"
experimental_target = "EPHB2 (UniProt P29323)"
assay_endpoint = "phosphorylation enrichment"
reported_value = 0.637

[[record]]
sequence_data = "ILLAGCLVMVI [SLC28A3_Y113_Y113C]"
experimental_target = "EPHB2 (UniProt P29323)"
assay_endpoint = "phosphorylation enrichment"
reported_value = 0.614

[[record]]
sequence_data = "AESPEHVHMFT [FAM111A_Y511_Y511H_YF]"
experimental_target = "EPHB2 (UniProt P29323)"
assay_endpoint = "phosphorylation enrichment"
reported_value = 0.569


Exercise: Consider the sequence YCRHNYGVVES [HLA-DRB1_Y112] and give its measured phosphorylation enrichment.
Key: 2.87

---

System: Fer (mouse)
TEST DESCRIPTION: phosphorylation enrichment, bacterial display (enrichment ratio); higher = better substrate or ligand; peptides without Tyr show the background
Would you mind labelling by phosphorylation enrichment? At or over 0.4 is true, under is false.

[[record]]
sequence_data = "AKLNIYKRKVE [VWA3B_Y918]"
discrete_label = "false"

[[record]]
sequence_data = "PDKRIYQFTAA [SKAP2_Y197]"
discrete_label = "true"

[[record]]
sequence_data = "KGPNVCKKTVN [REV3L_Y1156_Y1156C]"
discrete_label = "false"

[[record]]
sequence_data = "HNQDGYSFLSR [LDLR_Y845_P848L_YF]"
discrete_label = "true"


Exercise: Tell me whether phosphorylation enrichment is at least 0.4 here: GGPTFYIDTNA [ACTL6A_Y69_YF]
Key: true

---

EXPERIMENTAL TARGET: EPHB2 (UniProt P29323)
TEST DESCRIPTION: phosphorylation enrichment, bacterial display (enrichment ratio); higher = better substrate or ligand; peptides without Tyr show the background
Heads up, the class ranges for phosphorylation enrichment are low group = under 0.5, middle group = from 0.5 up to 0.6, high group = 0.6 and over

Use these answered entries as a reference point.
[[record]]
sequence_data = "PFRSIYFSSPK [MPG_Y75_YF]"
experimental_target = "EPHB2 (UniProt P29323)"
discrete_label = "middle group"

[[record]]
sequence_data = "PELINYHQHNS [BTK_Y361]"
experimental_target = "EPHB2 (UniProt P29323)"
discrete_label = "high group"

[[record]]
sequence_data = "RIPFRYPKEFQ [IDS_Y234_H229R]"
experimental_target = "EPHB2 (UniProt P29323)"
discrete_label = "high group"


Exercise: Form: Item = VDEVLYEDSSA [MTHFS_Y197_T202A] ; Class = ?
Key: middle group

Exercise: Cool, now MARDIYRASFF [ALK_Y1278_YF]
Key: low group
